MEASURED_TARGET: T1, extracellular domain of human PRLR (monomeric, soluble) (human, UniProt P16471 25-234)
T1 construct: also called ECD-PRLR; ECD of PRLR
T1 sequence: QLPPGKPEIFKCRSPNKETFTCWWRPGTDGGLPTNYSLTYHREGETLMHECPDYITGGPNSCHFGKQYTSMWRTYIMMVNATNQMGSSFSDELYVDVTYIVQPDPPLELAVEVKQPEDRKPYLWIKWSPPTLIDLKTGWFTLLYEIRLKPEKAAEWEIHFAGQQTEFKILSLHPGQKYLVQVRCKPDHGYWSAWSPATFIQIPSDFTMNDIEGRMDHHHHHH
METHOD: SPR (Biacore), IgG1 directly immobilized, monomeric human PRLR ECD from HEK293 as analyte
Overview of recorded koff for various binders
Report only the number, with the unit s⁻¹ understood.

Field: example entries. Status: answers known.
| BINDER | koff, s⁻¹ |
| --- | --- |
| 005-C04 (antibody, V domains shown, Tested as human IgG1; also called IgG1 005-C04; 005-004) VH: EVQLLESGGGLVQPGGSLRLSCAASGFTFSSYWMHWVRQAPGKGLEWVSDISSASSYTNYADSVKGRFTISRDNSKNTLYLQMNSLRAEDTAVYYCARGLDARRMDYWGQGTLVTVSS VL: QSVLTQPPSASGTPGQRVTISCTGSSSNIGAGYVVHWYQQLPGTAPKLLIYRNNQRPSGVPDRFSGSKSGTSASLAISGLRSEDEADYYCAAWDDSLNGWLFGGGTKLTVLG | 0.0093 |
| 002-H06 (antibody, V domains shown, Tested as human IgG1) VH: QVELLESGGGLVQPGGSLRLSCAASGFTFANYGLTWVRQAPGKGLEWVAVISFNGDKKYYADSVKGRFTISRDNSKNTLYLQMNSLRAEDTAVYYCASPLESPVAFDIWGQGTLVTVSS VL: QSVLTQPPSASGTPGQRVTISCSGSYSNIGGNPVNWYQQLPGTAPKLLIYGNSNRPSGVPDRFSGSKSGTSASLAISGLRSEDEADYYCQSYDSSLSGSVFGGGTKLTVLG | 0.00054 |
| XHA06.642 (antibody, V domains shown, Novartis antibody (WO2008/022295)) VH: EVQLVESGGDLVKPGGSLKLSCAVSGFTFSSYGMSWVRQTPDKRLEWVATVSSGGTYTYYPDSVKGRFTISRDNAKNTLYLQMSSLKSEDSAMYYCARHRGNYYATYYYAMDYWGQGTSVTVSS VL: DIVLTQSPASLAVSLGQGATISCRASKSVSTSGYTYMHWYQQKPGQPPKLLIYLASNLESGVPARFSGSGSGTDFTLNIHPVEEEDAATYYCQHSGELPPSFGGGTKLEIKR | 0.00013 |
| 001-E06 (antibody, V domains shown, Tested as human IgG1) VH: QVELLESGGGLVQPGGSLRLSCAASGFTFSSYWMSWVRQAPGKGLEWVSSVSDTGTDTHYADSVKGRFTISRDNSKNTLYLQMNSLRAEDTAVYYCAKTPLAYSSGWYYFDYWGQGTLVTVSS VL: DIVLTQPPSASGTPGQRVTISCSGSSSNIGSNTVNWYQQLPGTAPKLLIYRNYQRPSGVPDRFSGSKSGTSASLAISGLRSEDEADYYCQSYDSSLSGSVFGGGTKLTVLG | 0.0048 |

Task: In one line, give reported koff of the entry HE06.642 (antibody, V domains shown, Human Engineered Novartis antibody (WO2008/022295); tested as human IgG1) VH: EVQLVESGGGLVQPGGSLRLSCAVSGFTFSSYGMSWVRQAPGKGLEWVATVSSGGTYTYYPDSVKGRFTISRDNSKNTLYLQMNSLRAEDTAVYYCARHRGNYYATYYYAMDYWGQGTLVTVSS VL: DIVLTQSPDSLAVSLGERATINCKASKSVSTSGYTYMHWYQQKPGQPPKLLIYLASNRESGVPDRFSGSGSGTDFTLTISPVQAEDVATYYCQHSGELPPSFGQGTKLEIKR .
Output: 0.00032

Task: Give a short answer stating reported koff for 002-H08 (antibody, V domains shown, Tested as human IgG1) VH: QVELLESGGGLVQPGGSLRLSCAASGFTFSSYGMHWVRQAPGKGLEWVSGVSWNGSRTHYADSVKGRLTISRDNSKNTLYLQMNSLRAEDTAVYYCARGGDFDYWGQGTLVTVSS VL: QSVLTQPPSASGTPGQRVTISCSGSSSNIGSNDVYWYQQLPGTAPKLLIYDNNKRPSGVPDRFSGSKSGTSASLAISGLRSEDEADYYCQSYDSSLSGSWVFGGGTKLTVLG .
Output: 0.0002
